experiment: folding enthalpy; higher = less favourable; fluorescence melt of hairpins on a sequencing array, two-state fit; conditions: sodium 0.088 M
measured endpoint: folding enthalpy (kcal/mol)
# number only, unit kcal/mol dropped from output

Need folding enthalpy, item GATCACTGAGGTGATC ((((((....))))))
-40.5

Need folding enthalpy, item CGTGCGGAAACGCTAACG ((((((....)))..)))
-20

Need folding enthalpy, item GAACCACGAAAGTGTTTC (((.(((....))).)))
-27.6

Need folding enthalpy, item GCGGGCGCGAAAGCGCGC (((..(((....))))))
-7.24

Need folding enthalpy, item GTCTTAGAAATAAGAC ((((((....))))))
-26.5

Need folding enthalpy, item GCTCAGCGAAAGCCGCGC ((.(.((....)).).))
-17.8

Need folding enthalpy, item GTCATTGGAAACAGTGAC ((((.((....)).))))
-33.7

Need folding enthalpy, item GTATTAGGAAACTAATGC (.(((((....))))).)
-28.2

Need folding enthalpy, item GTGCGGGCGAAAGCCCAC (((..(((....))))))
-10.3

Need folding enthalpy, item GATCAAGGAAACCTGATC (((((.(....).)))))
-29.1

Need folding enthalpy, item GCTACTGCGAAAGCAAGC (((..(((....))))))
-11.4

Need folding enthalpy, item ATGACGAAAGTCAT (((((....)))))
-19.1

----------
Answer each item with its documented folding enthalpy.
assay: folding enthalpy; higher = less favourable; fluorescence melt of hairpins on a sequencing array, two-state fit; conditions: sodium 0.088 M
# number only, unit kcal/mol dropped from output

Need folding enthalpy, item CGGTCGGAAACGATGCCG ((((((....)))..)))
-22.1

Need folding enthalpy, item GTGGGAGGAAACTCCCGC (.(((((....))))).)
-33.4

Need folding enthalpy, item GCCCTCGGAAACGAAGGC (((.(((....))).)))
-34.1

Need folding enthalpy, item GCCCTGCGAAAGCACCGC ((..(((....)))..))
-7.84

Need folding enthalpy, item GATCATGGCATGATC ((((((...))))))
-44

Need folding enthalpy, item GGAAGGACGAAAGTCTCC (((..(((....))))))
-12.8

Need folding enthalpy, item GCCGCGCGAAAGCTTGGC (((..((....))..)))
-22.7

Need folding enthalpy, item GGCGCCGAAAGGCGGGCC ((((((....)))..)))
-9.79

Need folding enthalpy, item GGTTCGACGAAAGTCACC (((..(((....))))))
-11.9

Need folding enthalpy, item GCAGGCGAAAGCCACTGC ((((((....)))..)))
-15.9

Need folding enthalpy, item GCCGTCGGAAACGACGAC (.(((((....))))).)
-13.3

Need folding enthalpy, item GATCGTAGGTACGATC ((((((....))))))
-38.9

Need folding enthalpy, item GCGCATGGAAACGTGTGC ((.((.(....).)).))
-36.7

Need folding enthalpy, item GTCTCGAAAGAGAC (((((....)))))
-24.8

Need folding enthalpy, item GGATACGAAAGTACATCC ((((((....)))..)))
-17.1

Need folding enthalpy, item GGACAGGGAAACCTGTTC (.(((((....))))).)
-22.9

Need folding enthalpy, item GGGCATGGAAACATGTCC ((.((((....)))).))
-43.4

Need folding enthalpy, item GGGTCGGGAAACCGGTCC ((..(((....)))..))
-28.5

Need folding enthalpy, item GGAAGGGCGAAAGCCTCC (((..(((....))))))
-11.2

Need folding enthalpy, item GTCTGGGCGAAAGCCGAC (((..(((....))))))
-14.6

Need folding enthalpy, item GCGTTGCGAAAGCTAGGC ((.(.((....)).).))
-19.2

Need folding enthalpy, item GCTGGTACGAAAGTAAGC (((..(((....))))))
-16.2

Need folding enthalpy, item GTATTGGGAAACCAACAC ((.((((....)))).))
-15

Need folding enthalpy, item GAAGAAGAAATTCTTC ((((((....))))))
-18.5

Need folding enthalpy, item CATGGGAAACCATG (((((....)))))
-22.3

Need folding enthalpy, item GCTTGGCGAAAGCTTAGC (((..((....))..)))
-16.9

Need folding enthalpy, item GATCCGGATCCGGATC ((((((....))))))
-51.4

Need folding enthalpy, item CGCGGAAGCGTCCGCG ((((((....))))))
-13.4

Need folding enthalpy, item GCATTTGGAAACAAACGC ((.((((....)))).))
-30.1

Need folding enthalpy, item GATCTCATTAGAGATC ((((((....))))))
-35

Need folding enthalpy, item GCAGGGACGAAAGTCTGC (((..(((....))))))
-23

Need folding enthalpy, item GGGGAGACGAAAGTCCCC (((..(((....))))))
-29.6

Need folding enthalpy, item GGCTGGAAACAGCC (((((....)))))
-30.9

Need folding enthalpy, item GTGGACGAAAGTCCTCAC ((((((....)))..)))
-9.72

Need folding enthalpy, item GTCACACGAAAGTGGGAC (((.(((....))).)))
-31.9

Need folding enthalpy, item GCTGGGCGAAAGCCTTGC ((..(((....)))..))
-17.1

Need folding enthalpy, item GCCCTTGGAAACAGGGGC ((((.((....)).))))
-41.4

Need folding enthalpy, item GCCACCGAAAGGTTTGGC ((((((....)))..)))
-26.6

Need folding enthalpy, item TCATCGAAAGATGA (((((....)))))
-22.9

Need folding enthalpy, item GCCATGCGAAAGCAGTGC ((..(((....)))..))
-15.2

Need folding enthalpy, item GCTATGCGAAAGCATCGC ((.((((....)))).))
-22.5

Need folding enthalpy, item GTAGTCCGAAAGGATAC (((.(((....))))))
-15.8

Need folding enthalpy, item GTGGGCACGAAAGTGCAC (((..(((....))))))
-14.6

Need folding enthalpy, item GATCGGCCTCCGATC ((((((...))))))
-34.3

Need folding enthalpy, item GGACCCCGAAAGGGCTCC (((.(((....))).)))
-16.3

Need folding enthalpy, item GATCGCTAAGGCGATC ((((((....))))))
-39.2

Need folding enthalpy, item GGGTCAACGAAAGTTCCC (((..(((....))))))
-18.8

Need folding enthalpy, item GATCGTGACGACGATC ((((((....))))))
-39.2

Need folding enthalpy, item GATTCGGGAAACTGGATC (((.(.(....).).)))
-24.2

Need folding enthalpy, item GCATACCCGAAAGGGTGC (((..(((....))))))
-12.1
